# SYSTEM: Protein deacetylase HDAC6 (Homo sapiens, UniProt Q9UBN7)
# Sequence (Q9UBN7 whole entry): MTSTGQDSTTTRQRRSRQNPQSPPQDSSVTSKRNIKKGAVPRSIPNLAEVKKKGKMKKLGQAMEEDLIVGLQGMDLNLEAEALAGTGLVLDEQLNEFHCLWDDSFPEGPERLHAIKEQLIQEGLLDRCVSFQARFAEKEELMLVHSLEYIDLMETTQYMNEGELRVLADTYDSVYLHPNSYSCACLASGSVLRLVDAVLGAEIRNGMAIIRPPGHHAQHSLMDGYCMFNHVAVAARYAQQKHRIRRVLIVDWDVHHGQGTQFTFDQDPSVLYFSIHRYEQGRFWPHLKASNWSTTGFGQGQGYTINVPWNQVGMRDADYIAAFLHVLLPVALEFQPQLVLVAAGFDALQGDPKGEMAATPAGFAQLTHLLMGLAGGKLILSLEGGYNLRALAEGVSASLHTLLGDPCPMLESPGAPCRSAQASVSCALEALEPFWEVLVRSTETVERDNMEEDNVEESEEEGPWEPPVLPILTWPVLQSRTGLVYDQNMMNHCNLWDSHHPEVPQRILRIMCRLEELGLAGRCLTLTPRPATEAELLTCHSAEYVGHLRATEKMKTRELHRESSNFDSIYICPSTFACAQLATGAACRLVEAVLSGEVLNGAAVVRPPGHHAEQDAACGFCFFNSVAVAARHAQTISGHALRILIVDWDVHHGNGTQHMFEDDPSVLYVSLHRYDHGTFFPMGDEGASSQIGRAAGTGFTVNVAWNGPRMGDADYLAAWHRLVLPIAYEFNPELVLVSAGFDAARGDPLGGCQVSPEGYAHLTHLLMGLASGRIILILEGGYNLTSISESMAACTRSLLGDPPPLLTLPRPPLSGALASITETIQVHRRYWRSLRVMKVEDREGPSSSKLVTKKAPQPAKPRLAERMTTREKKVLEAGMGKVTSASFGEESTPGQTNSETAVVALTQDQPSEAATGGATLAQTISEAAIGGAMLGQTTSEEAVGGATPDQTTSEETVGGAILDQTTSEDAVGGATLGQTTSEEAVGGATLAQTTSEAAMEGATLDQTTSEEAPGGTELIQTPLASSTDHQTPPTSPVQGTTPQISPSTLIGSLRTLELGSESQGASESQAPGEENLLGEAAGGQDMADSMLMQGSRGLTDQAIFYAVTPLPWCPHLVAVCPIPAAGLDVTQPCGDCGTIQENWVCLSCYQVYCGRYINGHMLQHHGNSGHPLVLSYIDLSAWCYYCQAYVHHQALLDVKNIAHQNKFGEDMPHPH
# METHOD: Inhibition of full length human recombinant N-terminal GST-tagged HDAC6 expressed in baculovirus infected sf9 cells Z-(Ac)Lys-AMC as substrate measured after 90 mins by fluorescence assay
pIC50: −log10 of the molar value.
PARAMETER: pIC50

[A] COc1cc(NC(=O)NOCCCCCC(=O)NO)c2nc(OC)cc(C)c2c1
[B] COc1cc(NC(=O)NOCCCCCC(=O)NO)c2nccc(C)c2c1
[C] COc1cc(NC(=O)NOCCCCCC(=O)NO)c2ncccc2c1
[D] O=C(CCCCCONC(=O)Nc1cnc2ccccc2c1)NO
(Q) Put the items in sequence by pIC50, from largest down. Returns: the labels listed in the requested order.
(A) A, C, B, D
(A: 8.55, C: 8.21, B: 7.61, D: 7.29)
